Tested on: Alternaria solani
Assay: Alternaria test (tomato)/protective
Assay type: in vivo
Conditions: 168 h, tomato plants, protective spray, evaluation 7 days after inoculation, read-out: Efficacy (%)
// reported pest or weed control at 500 ppm for each item listed
parameter: pest or weed control at 500 ppm (%)

molecule	parameter	unitsLabel	experimentalValue
CC(C)(C)C(O)(CCc1ccc(SC(F)(F)F)cc1)c1cncnc1 (stereo not shown)	pest or weed control at 500 ppm	%	94
CC(C)(Sc1ccc(SC(F)(F)F)cc1)C(C)(O)c1cncnc1 (stereo not shown)	pest or weed control at 500 ppm	%	100
CC(C)C(O)(c1cncnc1)C(C)(C)Oc1cccc(OC(F)(F)F)c1 (stereo not shown)	pest or weed control at 500 ppm	%	95
CC(C)(Oc1cccc(OC(F)(F)F)c1)C(C)(O)c1cncnc1 (stereo not shown)	pest or weed control at 500 ppm	%	100
CC(C)(C)C(O)(COc1ccc(OC(F)(F)F)cc1)c1cncnc1 (stereo not shown)	pest or weed control at 500 ppm	%	100
CC(C)(C)C(O)(COc1ccc(S(=O)(=O)C(F)(F)F)cc1)c1cncnc1 (stereo not shown)	pest or weed control at 500 ppm	%	89
CC(C)(C)C(O)(COc1ccc(SC(F)(F)F)cc1)c1cncnc1 (stereo not shown)	pest or weed control at 500 ppm	%	94
Cc1cc(OC(F)(F)F)ccc1OCC(O)(c1cncnc1)C(C)(C)C (stereo not shown)	pest or weed control at 500 ppm	%	90
CC(C)(Oc1ccc(OC(F)(F)F)cc1)C(C)(O)c1cncnc1 (stereo not shown)	pest or weed control at 500 ppm	%	100
OC(COc1ccc(SC(F)(F)F)cc1)(c1cncnc1)C1(Cl)CC1 (stereo not shown)	pest or weed control at 500 ppm	%	95
CC#CC(O)(c1cncnc1)C(C)(C)Oc1ccc(OC(F)(F)F)cc1 (stereo not shown)	pest or weed control at 500 ppm	%	94
CC(C)(Sc1ccc(OC(F)(F)F)cc1)C(C)(O)c1cncnc1 (stereo not shown)	pest or weed control at 500 ppm	%	100
CC(C)(C)C(O)(CSc1ccc(SC(F)(F)F)cc1)c1cncnc1 (stereo not shown)	pest or weed control at 500 ppm	%	95
CC(C)C(O)(COc1ccc(OC(F)(F)F)cc1)c1cncnc1 (stereo not shown)	pest or weed control at 500 ppm	%	100
OC(c1cncnc1)(c1ccc(F)cc1F)C1(Oc2ccc(SC(F)(F)F)cc2)CC1 (stereo not shown)	pest or weed control at 500 ppm	%	80
CC(C)(C)C(O)(COc1ccc(OC(F)F)cc1)c1cncnc1 (stereo not shown)	pest or weed control at 500 ppm	%	95
CC(C)(Oc1ccccc1OC(F)(F)F)C(C)(O)c1cncnc1 (stereo not shown)	pest or weed control at 500 ppm	%	90
CC#CC(O)(c1cncnc1)C(C)(C)Oc1cccc(OC(F)(F)F)c1 (stereo not shown)	pest or weed control at 500 ppm	%	75
C=CCC(O)(c1cncnc1)C(C)(C)Sc1ccc(SC(F)(F)F)cc1 (stereo not shown)	pest or weed control at 500 ppm	%	100

====

Test system: Puccinia triticina
Assay: Puccinia triticina test (wheat)/protective
Format: in vivo
Settings: 192 h, protective spray, evaluation 8 days after inoculation, read-out: Efficacy (%)
parameter: pest or weed control at 500 ppm (%)

molecule	experimentalValue
CC(C)(C)C(O)(COc1ccc(OC(F)(F)F)cc1)c1cncnc1 (stereo not drawn)	100
CC1(C(O)(COc2ccc(SC(F)(F)F)cc2)c2cncnc2)CC1 (stereo not drawn)	100
Cc1cc(OC(F)(F)F)ccc1OCC(O)(c1cncnc1)C(C)(C)C (stereo not drawn)	100
CC(C)(Oc1ccc(OC(F)(F)F)cc1)C(C)(O)c1cncnc1 (stereo not drawn)	100
CC(C)(C)C(O)(COc1ccc(S(=O)(=O)C(F)(F)F)cc1)c1cncnc1 (stereo not drawn)	100
CC1(C(O)(COc2ccc(OC(F)(F)F)cc2)c2cncnc2)CC1 (stereo not drawn)	100
CC#CC(O)(c1cncnc1)C(C)(C)Oc1ccc(OC(F)(F)F)cc1 (stereo not drawn)	89
CC(C)(C)C(O)(COc1ccc(SC(F)(F)F)cc1)c1cncnc1 (stereo not drawn)	100
CC(C)C(O)(COc1ccc(OC(F)(F)F)cc1)c1cncnc1 (stereo not drawn)	100

====

System: Venturia inaequalis
Assay: Venturia test (apple)/protective
Format: in vivo
Details: 240 h, protective spray, evaluation 10 days after inoculation, read-out: Efficacy (%)

compound	pest or weed control at 100 ppm
CC(C)(C)C(O)(COc1ccc(S(=O)(=O)C(F)(F)F)cc1)c1cncnc1 (stereo not shown)	99%
CC(C)(Oc1cccc(OC(F)(F)F)c1)C(C)(O)c1cncnc1 (stereo not shown)	94%
OC(COc1ccc(OC(F)(F)F)cc1)(c1cncnc1)C1(Cl)CC1 (stereo not shown)	100%
CC(C)(C)C(O)(COc1ccc(OC(F)(F)F)cc1)c1cncnc1 (stereo not shown)	99%
CC(C)C(O)(COc1ccc(OC(F)(F)F)cc1)c1cncnc1 (stereo not shown)	94%
Cc1cc(OC(F)(F)F)ccc1OCC(O)(c1cncnc1)C(C)(C)C (stereo not shown)	98%
CC1(C(O)(COc2ccc(OC(F)(F)F)cc2)c2cncnc2)CC1 (stereo not shown)	99%
CC(C)(Oc1ccc(OC(F)(F)F)cc1)C(C)(O)c1cncnc1 (stereo not shown)	94%
CC(C)(C)C(O)(COc1ccc(SC(F)(F)F)c(Cl)c1)c1cncnc1 (stereo not shown)	99%
CC(C)(C)C(O)(COc1ccc(SC(F)(F)F)cc1)c1cncnc1 (stereo not shown)	100%

====

Assay: log P by HPLC on reversed-phase columns (C 18), EEC directive 79/831 Annex V.A8
Format: physicochemical
Conditions: reversed-phase HPLC columns (C 18); method [a]: LC-MS, acidic range pH 2.7, 0.1% aqueous formic acid/acetonitrile, gradient 10% to 95% acetonitrile
Label true for high-side chromatographic logP (at or above 3) and false for low-side chromatographic logP (below it).

compound	group
CC(C)(C)C(O)(COc1ccc(S(=O)(=O)C(F)(F)F)cc1)c1cncnc1 (centres unmarked)	false
CC(C)(C)C(O)(COc1ccc(OC(F)F)cc1)c1cncnc1 (centres unmarked)	false
CC1(C(O)(COc2ccc(SC(F)(F)F)cc2)c2cncnc2)CC1 (centres unmarked)	true
Cc1cc(OC(F)(F)F)ccc1OCC(O)(c1cncnc1)C(C)(C)C (centres unmarked)	true
CC(C)(C)C(O)(COc1ccc(SC(F)(F)F)c(Cl)c1)c1cncnc1 (centres unmarked)	true
CC(C)C(O)(CSc1ccc(SC(F)(F)F)cc1)c1cncnc1 (centres unmarked)	true
CC(C)(C)C(O)(COc1ccc(OC(F)(F)F)cc1Cl)c1cncnc1 (centres unmarked)	true

====

Test system: Alternaria solani
Experiment: Alternaria test (tomato)/protective
Format: in vivo
Details: 168 h, tomato plants, protective spray, evaluation 7 days after inoculation, read-out: Efficacy (%)
Below, each of the molecules is paired with its reported pest or weed control at 500 ppm value.

molecule	unitsLabel	pest or weed control at 500 ppm
CC#CC(O)(c1cncnc1)C(C)(C)Sc1ccc(OC(F)(F)F)cc1 (stereo not drawn)	%	100
CC#CC(O)(c1cncnc1)C(C)(C)Sc1ccc(SC(F)(F)F)cc1 (stereo not drawn)	%	94
CC(C)(C)C(O)(COc1ccc(OC(F)(F)F)cc1Cl)c1cncnc1 (stereo not drawn)	%	78

====

Quick list: pest or weed control at 500 ppm per entry.
Tested on: Alternaria solani
Experiment: Alternaria test (tomato)/protective
Assay type: in vivo
Details: 168 h, tomato plants, protective spray, evaluation 7 days after inoculation, read-out: Efficacy (%)
parameter: pest or weed control at 500 ppm (%)

compound	experimentalValue
CC1(C(O)(COc2ccc(SC(F)(F)F)cc2)c2cncnc2)CC1 (centres unmarked)	90
CC(C)C(O)(CSc1ccc(SC(F)(F)F)cc1)c1cncnc1 (centres unmarked)	95
OC(COc1ccc(OC(F)(F)F)cc1)(c1cncnc1)C1(Cl)CC1 (centres unmarked)	100
CC1(C(O)(COc2ccc(OC(F)(F)F)cc2)c2cncnc2)CC1 (centres unmarked)	90
CC(C)(C)C(O)(COc1ccc(SC(F)(F)F)c(Cl)c1)c1cncnc1 (centres unmarked)	95
